IC50 values by entry
biological target: intracellular GCN2 (phosphorylation of the GCN2 substrate eIF2α) (Homo sapiens); assay: GCN2 cellular inhibition assay (AlphaScreen SureFire P-eIF2α Ser51, borrelidin-treated U2OS cells); type: cell-based; details: compounds of Formula IV; biomarker assay, phosphorylated eIF2α Ser51 in borrelidin-treated U2OS cells
Sequence (Q9P2K8 whole entry): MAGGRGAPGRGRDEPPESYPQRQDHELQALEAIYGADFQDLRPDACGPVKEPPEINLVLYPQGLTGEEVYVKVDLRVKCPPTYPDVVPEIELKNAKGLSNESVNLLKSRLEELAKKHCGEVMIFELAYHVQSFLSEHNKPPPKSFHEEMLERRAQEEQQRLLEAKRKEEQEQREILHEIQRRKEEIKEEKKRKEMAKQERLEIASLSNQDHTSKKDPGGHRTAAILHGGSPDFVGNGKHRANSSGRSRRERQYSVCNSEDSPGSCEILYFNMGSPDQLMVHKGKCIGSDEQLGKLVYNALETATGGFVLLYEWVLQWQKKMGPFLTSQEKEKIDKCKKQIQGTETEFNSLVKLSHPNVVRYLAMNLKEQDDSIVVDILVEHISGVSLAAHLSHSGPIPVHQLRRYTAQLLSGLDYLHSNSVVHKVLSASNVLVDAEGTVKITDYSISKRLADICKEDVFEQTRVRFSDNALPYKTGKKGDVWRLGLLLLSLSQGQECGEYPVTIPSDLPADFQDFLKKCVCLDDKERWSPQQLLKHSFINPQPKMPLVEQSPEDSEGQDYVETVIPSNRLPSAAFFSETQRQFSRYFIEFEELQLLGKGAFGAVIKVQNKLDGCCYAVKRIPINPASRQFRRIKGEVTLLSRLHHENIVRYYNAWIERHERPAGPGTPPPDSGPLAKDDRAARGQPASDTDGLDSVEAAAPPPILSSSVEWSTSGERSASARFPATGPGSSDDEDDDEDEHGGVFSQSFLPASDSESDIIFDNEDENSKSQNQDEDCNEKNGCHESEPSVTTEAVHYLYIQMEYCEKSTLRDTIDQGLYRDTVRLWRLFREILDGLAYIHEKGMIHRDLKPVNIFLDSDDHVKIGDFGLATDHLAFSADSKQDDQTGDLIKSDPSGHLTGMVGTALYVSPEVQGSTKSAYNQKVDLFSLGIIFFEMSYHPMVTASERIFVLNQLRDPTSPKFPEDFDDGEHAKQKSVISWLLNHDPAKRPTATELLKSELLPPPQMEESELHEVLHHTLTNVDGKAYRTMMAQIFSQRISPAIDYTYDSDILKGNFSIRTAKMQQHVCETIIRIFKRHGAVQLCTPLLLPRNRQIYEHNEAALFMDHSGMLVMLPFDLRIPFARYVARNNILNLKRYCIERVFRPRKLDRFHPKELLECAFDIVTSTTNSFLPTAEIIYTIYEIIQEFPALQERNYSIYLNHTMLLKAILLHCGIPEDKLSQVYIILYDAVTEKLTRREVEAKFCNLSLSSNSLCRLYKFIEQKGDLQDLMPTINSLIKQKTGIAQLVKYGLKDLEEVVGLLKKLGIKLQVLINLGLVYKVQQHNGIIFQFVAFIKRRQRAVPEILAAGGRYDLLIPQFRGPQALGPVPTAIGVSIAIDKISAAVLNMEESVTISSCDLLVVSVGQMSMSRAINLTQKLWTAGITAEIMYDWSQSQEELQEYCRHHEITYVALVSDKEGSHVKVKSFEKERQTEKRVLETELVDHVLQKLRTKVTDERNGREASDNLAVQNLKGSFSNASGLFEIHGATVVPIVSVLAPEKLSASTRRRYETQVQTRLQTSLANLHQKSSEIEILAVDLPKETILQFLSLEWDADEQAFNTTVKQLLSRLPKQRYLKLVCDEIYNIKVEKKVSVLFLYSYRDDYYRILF

For orientation, consider the following solved cases.
| COMPOUND | MEASURED VALUE |
| --- | --- |
| CS(=O)(=O)NCC1CCCN(c2ccnc(-c3cnc4cnc(C(F)F)cn34)n2)C1 (centres unmarked) | > 5 µM |
| CNS(=O)(=O)C1CCCN(c2ccnc(-c3cnc4cnc(C(F)F)cn34)n2)C1 (centres unmarked) | > 5 µM |
| CC(=O)N1CCN(c2ccnc(-c3cnc4cnc(C(F)F)cn34)n2)CC1 | > 5 µM |
| CC1C(c2cn[nH]c2)CCN1c1ccnc(-c2cnc3cnc(C(F)(F)F)cn23)n1 (centres unmarked) [IV-689] | > 5 µM |
| NCS(=O)(=O)c1cccc(-c2ccnc(-c3cnc4cnc(C(F)F)cn34)n2)c1 | > 5 µM |
| FC(F)(F)c1cn2c(-c3nccc(N4CCCC(c5cn[nH]c5)C4)n3)cnc2cn1 (centres unmarked) [IV-59] | < 0.5 µM |

Identify measured IC50 associated with FC(F)(F)c1cn2c(-c3nccc(N4CCOCC4)n3)cnc2cn1
> 5 µM

Identify measured IC50 associated with C[C@@H]1[C@H](c2cn[nH]c2)OCCN1c1ccnc(-c2cnc3cnc(C#N)cn23)n1 (racemic)
< 0.5 µM

Identify measured IC50 associated with N#CCc1cccc(-c2ccnc(-c3cnc4cnc(C(F)F)cn34)n2)c1
> 5 µM

Identify measured IC50 associated with Cn1nc(C2CCCN(c3ccnc(-c4cnc5cnc(C(F)F)cn45)n3)C2)cc1O (centres unmarked)
> 5 µM

Identify measured IC50 associated with CC1CN(c2ccnc(-c3cnc4cnc(C(F)(F)F)cn34)n2)C(C)C(c2cn[nH]c2)O1 (centres unmarked) [IV-416]
0.5 to 5 µM

Identify measured IC50 associated with CP(C)(=O)C1CC(c2cn[nH]c2)CN(c2ccnc(-c3cnc4cnc(C(F)(F)F)cn34)n2)C1 (single isomer, unassigned) [IV-633]
> 5 µM

Identify measured IC50 associated with c1cn2c(-c3nccc(N4CCOC(c5cn[nH]c5)C4)n3)cnc2cn1 (centres unmarked)
> 5 µM

Identify measured IC50 associated with Cc1[nH]ncc1C1CN(c2ccnc(-c3cnc4cnc(C(F)(F)F)cn34)n2)CC(C)N1 (single isomer, unassigned) [IV-458]
> 5 µM

Identify measured IC50 associated with C[C@@H]1CC[C@H](C(N)=O)CN1c1ccnc(-c2cnc3cnc(C(F)F)cn23)n1 (racemic)
0.5 to 5 µM

Identify measured IC50 associated with NC(=O)[C@H]1CCCN(c2ccnc(-c3cnc4cnc(C(F)F)cn34)n2)C1
0.5 to 5 µM

Identify measured IC50 associated with CC(=O)N1CCN(c2nccc(-c3cnc4cnc(C(N)=O)cn34)n2)CC1
0.5 to 5 µM

###

target: UniProt:Q9P2K8; test: GCN2 enzyme inhibition assay (Transcreener ADP2 fluorescence polarization); assay type: biochemical; details: Enzyme activity for compounds of Formula IV; Ki(app), 280 μM ATP, 25° C.
ASSAY READOUT: Ki

Enter measured Ki, system UniProt:Q9P2K8, for the compound shown: NC(=O)c1cn2c(-c3nccc(N4CC(=O)N5CCCC5C4)n3)cnc2cn1 (stereo not shown)
100 to 1000 nM
